system name: TRPML2 (Homo sapiens, UniProt Q8IZK6)
Construct: expressed in transfected cells
Sequence (Q8IZK6 1-566): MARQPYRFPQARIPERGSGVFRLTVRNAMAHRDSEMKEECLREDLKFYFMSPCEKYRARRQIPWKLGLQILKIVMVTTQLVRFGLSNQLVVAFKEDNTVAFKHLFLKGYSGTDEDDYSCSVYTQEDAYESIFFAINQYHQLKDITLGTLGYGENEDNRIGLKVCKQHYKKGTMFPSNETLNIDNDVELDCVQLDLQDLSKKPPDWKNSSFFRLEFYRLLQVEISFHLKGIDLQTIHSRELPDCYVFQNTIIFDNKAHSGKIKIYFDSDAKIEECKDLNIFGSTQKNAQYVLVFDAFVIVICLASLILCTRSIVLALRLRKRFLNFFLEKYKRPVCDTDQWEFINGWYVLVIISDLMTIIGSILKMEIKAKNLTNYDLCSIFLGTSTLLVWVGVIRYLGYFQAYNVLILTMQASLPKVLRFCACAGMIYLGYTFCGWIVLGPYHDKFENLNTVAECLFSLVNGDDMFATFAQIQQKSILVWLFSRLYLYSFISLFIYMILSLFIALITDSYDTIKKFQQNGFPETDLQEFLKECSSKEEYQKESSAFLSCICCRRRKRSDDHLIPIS
test description: Fluorescent TRPML2 assay (performed as for TRPML1, substituting the TRPML2 subtype)
Format: cell-based
measurement parameters: fluorescent calcium assay
pEC50: −log10 of the molar value.
reported endpoint: pEC50

[
  {
    "compound": "CC(C)(C)OC(=O)N1CCN(c2ncnc3c2c(-c2ccccc2F)cn3-c2cc(C#N)ccn2)C2(CC2)C1",
    "system name": "TRPML2 (Homo sapiens, UniProt Q8IZK6)",
    "result": "> 7.00"
  }
]

Exercise: # value lookup — system TRPML2 (Homo sapiens, UniProt Q8IZK6), readout pEC50, item C[C@H]1CN(C(=O)OC(C)(C)C)CCN1c1ncnc2c1c(N1CCCC1)cn2-c1cc(C#N)ccn1
Key: 6.30 to 7.00

Exercise: # value lookup — system TRPML2 (Homo sapiens, UniProt Q8IZK6), readout pEC50, item C[C@@H]1CN(c2ncnc3c2c(C2CC2)cn3-c2cc(F)ccc2F)CCN1C(=O)OC(C)(C)C
Key: 5.70 to 6.30

Exercise: # value lookup — system TRPML2 (Homo sapiens, UniProt Q8IZK6), readout pEC50, item C[C@H]1CN(C(=O)OC(C)(C)C)CCN1c1ncnc2c1c(C1CC1(F)F)cn2-c1cc(C#N)ccn1 (stereo partly shown)
Key: 6.30 to 7.00

Exercise: # value lookup — system TRPML2 (Homo sapiens, UniProt Q8IZK6), readout pEC50, item C[C@H]1CN(C(=O)OC(C)(C)C)CCN1c1nccc2c1c(C1CC1)cn2-c1cc(C#N)ccn1
Key: 6.30 to 7.00

Exercise: # value lookup — system TRPML2 (Homo sapiens, UniProt Q8IZK6), readout pEC50, item C[C@H]1CN(C(=O)OC(C)(C)C)CCN1c1ncnc2c1c(C1COC1)cn2-c1cccc(F)c1
Key: < 5.70

Exercise: # value lookup — system TRPML2 (Homo sapiens, UniProt Q8IZK6), readout pEC50, item C[C@H]1CN(C(=O)OC(C)(C)C)CCN1c1ncnc2c1c(C1CC1)cn2-c1cccc(Cl)c1
Key: > 7.00

* * *

system name: TRPML2 (Homo sapiens, UniProt Q8IZK6)
Construct: expressed in transfected cells
test description: Fluorescent TRPML2 assay (performed as for TRPML1, substituting the TRPML2 subtype)
Format: cell-based
measurement parameters: fluorescent calcium assay
pEC50: −log10 of the molar value.
reported endpoint: pEC50

[
  {
    "structure": "C[C@@H]1CN(c2ncnc3c2c(-c2ccncc2)cn3-c2cc(F)cc(Cl)c2)CCN1C(=O)OC(C)(C)C",
    "pEC50": "5.70 to 6.30"
  },
  {
    "structure": "C[C@H]1CN(C(=O)OC(C)(C)C)CCN1c1ncnc2c1c(-c1ccccc1F)cn2-c1cc(C#N)ncn1",
    "pEC50": "> 7.00"
  },
  {
    "structure": "C[C@H]1CN(C(=O)OC(C)(C)C)CCN1c1ncnc2c1c(-c1ccncc1)cn2-c1cc(F)cc(F)c1",
    "pEC50": "5.70 to 6.30"
  }
]

Exercise: # value lookup — system TRPML2 (Homo sapiens, UniProt Q8IZK6), readout pEC50, item COc1cncc(-n2cc(C3CC3)c3c(N4CCN(C(=O)OC(C)(C)C)C[C@@H]4C)ncnc32)c1
Key: 5.70 to 6.30

Exercise: # value lookup — system TRPML2 (Homo sapiens, UniProt Q8IZK6), readout pEC50, item CCOC(=O)N1C[C@H](C)N(c2ncnc3c2c(C2CC2)cn3-c2cccc(Cl)c2)C[C@H]1C
Key: < 5.70

Exercise: # value lookup — system TRPML2 (Homo sapiens, UniProt Q8IZK6), readout pEC50, item C[C@H]1CN(C(=O)OC(C)(C)C)CCN1c1ncnc2c1c(N1CCOCC1)cn2-c1cccc(Cl)c1
Key: 6.30 to 7.00

Exercise: # value lookup — system TRPML2 (Homo sapiens, UniProt Q8IZK6), readout pEC50, item C[C@H]1CN(C(=O)OC(C)(C)C(F)(F)F)CCN1c1ncnc2c1c(C1CCC1)cn2-c1cc(C#N)ccn1
Key: 6.30 to 7.00

* * *

system name: UniProtKB Q9GZU1
Sequence (Q9GZU1 whole entry L15A/L16A/L577A/L578A, form open): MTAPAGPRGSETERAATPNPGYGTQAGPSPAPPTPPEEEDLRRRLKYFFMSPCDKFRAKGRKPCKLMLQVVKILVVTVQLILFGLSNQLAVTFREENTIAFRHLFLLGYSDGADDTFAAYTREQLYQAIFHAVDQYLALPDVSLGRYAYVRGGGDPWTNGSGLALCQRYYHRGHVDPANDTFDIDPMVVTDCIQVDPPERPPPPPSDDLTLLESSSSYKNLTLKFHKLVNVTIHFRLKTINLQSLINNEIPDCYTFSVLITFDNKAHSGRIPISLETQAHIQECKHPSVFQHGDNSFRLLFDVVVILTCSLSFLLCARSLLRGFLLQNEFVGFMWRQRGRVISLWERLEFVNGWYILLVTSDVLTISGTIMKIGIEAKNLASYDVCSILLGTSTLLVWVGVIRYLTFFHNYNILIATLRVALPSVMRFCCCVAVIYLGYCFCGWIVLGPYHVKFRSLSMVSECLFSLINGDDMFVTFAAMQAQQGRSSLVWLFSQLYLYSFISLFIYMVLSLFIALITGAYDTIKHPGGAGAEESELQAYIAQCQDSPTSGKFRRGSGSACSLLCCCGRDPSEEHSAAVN
test description: Fluorescent TRPML1 assay (Fluo4-AM calcium fluorescence in doxycycline-induced HEK-293 Trex cells)
Assay type: cell-based
measurement parameters: fluorescent calcium assay
Protocol: HEK-293 Trex cells were stably transfected with a construct consisting of the human coding sequence for TRPML1 cloned into the […] plasmid pCDNA5 T/O. Mutations were introduced into the TRPML1 sequence to facilitate expression on the cell surface (Silvia Vergarajauregui, Rosa Puertollano, Traffic. 2006 March; 7(3): 337-353). […] The Trypsin-EDTA is diluted with growth media, and cells are counted. […] EC50 values were calculated using a non-linear regression of Prism. […]
pEC50: −log10 of the molar value.
Below, each entry is listed alongside its reported pEC50.

[
  {
    "compound": "CC(C)OC(=O)N1CCN(c2ncnc3c2c(C2CC2)cn3-c2cc(C#N)ccn2)[C@@H](C)C1 [Compound 386]",
    "result": "> 7.00"
  }
]

Exercise: Quick one: pEC50 for C[C@H]1CN(C(=O)OC(C)(C)C)CCN1c1ncnc2c1c(N1CCC(C)(C)C1)cn2-c1cc(C#N)ccn1 [Compound 405] ?
Key: > 7.00

Exercise: Quick one: pEC50 for CC(C)(C)OC(=O)N1CCN(c2ncnc3c2c(C2CC2)cn3-c2cc(C#N)ccn2)[C@@H]2C[C@@H]21 (single isomer, unassigned) [Compound 408] ?
Key: 6.30 to 7.00

Exercise: Quick one: pEC50 for C[C@@H]1COCCN1c1cn(-c2cc(C#N)ccn2)c2ncnc(N3CCN(C(=O)OC(C)(C)C)C[C@@H]3C)c12 [Compound 419] ?
Key: > 7.00

Exercise: Quick one: pEC50 for CC(C)(C)OC(=O)N1CCN(c2ncnc3c2c(-c2ccccc2F)cn3-c2cc(C#N)ccn2)C2CC21 (centres unmarked) [Compound 412] ?
Key: 6.30 to 7.00

Exercise: Quick one: pEC50 for C[C@@H]1CN(c2ncnc3c2c(-c2ccccn2)cn3-c2cc(F)cc(F)c2)CCN1C(=O)OC(C)(C)C [Compound 215] ?
Key: 6.30 to 7.00

* * *

Below, each entry is listed alongside its reported EC50.
system name: TRPML3 (Homo sapiens)
Construct: expressed in transfected cells
Sequence (Q8TDD5 whole entry): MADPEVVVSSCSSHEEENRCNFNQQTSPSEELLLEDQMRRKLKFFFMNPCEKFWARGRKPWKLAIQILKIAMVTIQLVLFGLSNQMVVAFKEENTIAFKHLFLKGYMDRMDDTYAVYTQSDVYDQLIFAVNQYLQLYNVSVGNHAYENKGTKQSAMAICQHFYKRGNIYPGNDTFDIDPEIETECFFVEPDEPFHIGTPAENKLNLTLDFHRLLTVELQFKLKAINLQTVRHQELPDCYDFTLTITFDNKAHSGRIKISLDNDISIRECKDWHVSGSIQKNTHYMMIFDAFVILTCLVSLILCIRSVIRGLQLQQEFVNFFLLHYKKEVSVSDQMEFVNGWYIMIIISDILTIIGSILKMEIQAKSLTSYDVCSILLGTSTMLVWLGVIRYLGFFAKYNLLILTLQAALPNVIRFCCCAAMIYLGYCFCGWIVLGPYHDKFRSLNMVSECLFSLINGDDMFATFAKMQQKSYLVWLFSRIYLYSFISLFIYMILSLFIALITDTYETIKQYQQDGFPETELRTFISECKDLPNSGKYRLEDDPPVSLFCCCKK
test description: Fluorescent TRPML3 assay (performed as for TRPML1, substituting the TRPML3 subtype)
Format: cell-based
measurement parameters: fluorescent calcium assay

[
  {
    "structure": "C[C@H]1CN(C(=O)OCC(F)(F)F)CCN1c1ncnc2c1c(-c1ccccc1)cn2-c1cc(C#N)ccn1",
    "system name": "TRPML3 (Homo sapiens)",
    "EC50": "< 100 nM"
  },
  {
    "structure": "CC(C)(C)OC(=O)N1CCN(c2ncnc3c2c(C2CCOCC2)cn3-c2cccc(Cl)c2)CC1",
    "system name": "TRPML3 (Homo sapiens)",
    "EC50": "< 100 nM"
  },
  {
    "structure": "C[C@H]1CN(C(=O)OC(C)(C)C)CCN1c1ncnc2c1c(C1CC1)cn2-c1ccc(F)cc1",
    "system name": "TRPML3 (Homo sapiens)",
    "EC50": "< 100 nM"
  },
  {
    "structure": "C[C@@H]1CN(c2ncnc3c2c(N2CCC2)cn3-c2cc(C#N)ccn2)[C@@H](C)CN1C(=O)OC(C)(C)C",
    "system name": "TRPML3 (Homo sapiens)",
    "EC50": "< 100 nM"
  },
  {
    "structure": "Cc1cncc(-n2cc(C3CC3)c3c(N4CCN(C(=O)OC(C)(C)C)C[C@@H]4C)ncnc32)c1",
    "system name": "TRPML3 (Homo sapiens)",
    "EC50": "100 to 500 nM"
  },
  {
    "structure": "C[C@H]1CN(C(=O)OC(C)(C)C)CCN1c1ncnc2c1c(-c1cccnc1)cn2-c1ccc(F)c(Cl)c1",
    "system name": "TRPML3 (Homo sapiens)",
    "EC50": "< 100 nM"
  },
  {
    "structure": "C[C@H]1CN(C(=O)OC(C)(C)C(F)(F)F)CCN1c1ncnc2c1c(C1CC1)cn2-c1ccc(Cl)cc1",
    "system name": "TRPML3 (Homo sapiens)",
    "EC50": "< 100 nM"
  },
  {
    "structure": "C[C@@H]1CN(c2ncnc3c2c(-n2cccn2)cn3-c2cccc(Cl)c2)CCN1C(=O)OC(C)(C)C",
    "system name": "TRPML3 (Homo sapiens)",
    "EC50": "< 100 nM"
  }
]

Exercise: Quick one: EC50 for C[C@@H]1CN(c2ncnc3c2c(-c2cccnc2)cn3-c2cncc(C(F)(F)F)c2)[C@@H](C)CN1C(=O)OC(C)(C)C ?
Key: 100 to 500 nM

Exercise: Quick one: EC50 for C[C@H]1CN(c2ncnc3c2c(C2CC2)nn3-c2cc(F)cc(F)c2)CCN1C(=O)OC(C)(C)C ?
Key: 100 to 500 nM

Exercise: Quick one: EC50 for CC(C)(CF)OC(=O)N1CCN(c2ncnc3c2c(-c2ccccc2F)cn3-c2cccnc2)CC1 ?
Key: 500 to 2000 nM

Exercise: Quick one: EC50 for CC(C)(C)OC(=O)N1CCN(c2ncnc3c2c(-c2ccccc2F)cn3-c2cc(C#N)ccn2)C2(CC2)C1 ?
Key: < 100 nM

Exercise: Quick one: EC50 for C[C@H]1CCCN1c1cn(-c2cccc(Cl)c2)c2ncnc(N3CCN(C(=O)OC(C)(C)C)C[C@@H]3C)c12 ?
Key: < 100 nM

Exercise: Quick one: EC50 for C[C@H]1CN(C(=O)OC(C)(C)C(F)(F)F)CCN1c1ncnc2c1c(C1CC1)cn2-c1cccc(OC(F)(F)F)c1 ?
Key: < 100 nM

Exercise: Quick one: EC50 for C[C@H]1CN(C(=O)OCC(F)(F)F)CCN1c1ncnc2c1c(C1CC1)cn2-c1cc(C#N)ccn1 ?
Key: < 100 nM

Exercise: Quick one: EC50 for CC(C)(C)OC(=O)N1CCN(c2ncnc3c2c(-c2cccnc2)cn3-c2cccc(Cl)c2)CC1 ?
Key: < 100 nM

Exercise: Quick one: EC50 for C[C@@H]1CN(c2ncnc3c2c(C2CC2)cn3-c2ccc(F)c(F)c2)CCN1C(=O)OC(C)(C)C ?
Key: < 100 nM

Exercise: Quick one: EC50 for C[C@@H]1CN(c2ncnc3c2c(-c2cnccn2)cn3-c2cc(F)cc(F)c2)CCN1C(=O)OC(C)(C)C ?
Key: 100 to 500 nM

Exercise: Quick one: EC50 for CC(C)OC(=O)N1C[C@H](C)N(c2ncnc3c2c(-c2ccccc2F)cn3-c2cnn(C)c2)C[C@H]1C ?
Key: 100 to 500 nM

Exercise: Quick one: EC50 for C[C@@H]1CN(C(=O)OC(C)(C)C)CCN1c1ncnc2c1c(C1CCOCC1)cn2-c1cc(F)cc(F)c1 ?
Key: 500 to 2000 nM

Exercise: Quick one: EC50 for C[C@H]1CN(C(=O)OC(C)(C)C)CCN1c1ncnc2c1c(C1CC1)cn2-c1cccc(C#N)c1 ?
Key: < 100 nM

Exercise: Quick one: EC50 for C[C@@H]1CN(c2ncnc3c2c(C2CC2)cn3-c2cncc(C(F)(F)F)c2)[C@@H](C)CN1C(=O)OC(C)(C)C ?
Key: < 100 nM

Exercise: Quick one: EC50 for C[C@H]1CN(C(=O)OC(C)(C)C)CCN1c1ncnc2c1c(-c1ccccc1F)cn2-c1ccnnc1 ?
Key: 100 to 500 nM

Exercise: Quick one: EC50 for C[C@H]1CN(C(=O)OC(C)(C)C)CCN1c1ncnc2c1c(C1CCOCC1)cn2-c1cccc(F)c1 ?
Key: 500 to 2000 nM

Exercise: Quick one: EC50 for C[C@H]1CN(C(=O)OC(C)(C)C)CCN1c1ncnc2c1c(N1CCC[C@@H]1CO)cn2-c1cccc(Cl)c1 ?
Key: < 100 nM

Exercise: Quick one: EC50 for C[C@H]1CN(C(=O)OC(C)(C)CF)CCN1c1ncnc2c1c(-c1ccccc1)cn2-c1cnn(C)c1 ?
Key: 100 to 500 nM

Exercise: Quick one: EC50 for C[C@H]1CN(C(=O)OC(C)(C)C)CCN1c1ncnc2c1c(C(C)(C)O)cn2-c1cc(C#N)ccn1 ?
Key: < 100 nM

Exercise: Quick one: EC50 for C[C@@H]1CN(C(=O)OC(C)(C)C)CCN1c1ncnc2c1c(C1=CCOCC1)cn2-c1cccc(F)c1 ?
Key: 100 to 500 nM
